# TESTED_ON: EHD3
# ASSAY_COMMENT: pooled miR-30 sensor sort-seq; sequence = guide strand; further: reference of the scale not given here
# CONDITIONS: shRNA
Use -1 as the dividing line for sensor-assay potency score (higher = more potent), with the line itself on the 1 side and lower values as 0.

In: Entry TTGATGACTTCTGAGAACTCAT : is its sensor-assay potency score (higher = more potent) no less than -1?
Out: 1

Next:
In: Quick check, sensor-assay potency score (higher = more potent) >= -1? TTGTCCTTCCCGAACACCGAGG
Out: 0

In: Could you verify whether the entry TTGACCAGCTCCTTCTTCTTGT shows sensor-assay potency score (higher = more potent) of no less than -1?
Out: 1

In: Confirm if sensor-assay potency score (higher = more potent) reported for the sequence TTTGTGGGCATCGAAGAGCAGA is -1 or above.
Out: 0

In: Has TAGAAGATCTCGTCGTACATGG a recorded sensor-assay potency score (higher = more potent) greater than or equal to -1?
Out: 1

* * *

# TESTED_ON: SLC13A5
# ASSAY_COMMENT: pooled miR-30 sensor sort-seq; sequence = guide strand
# CONDITIONS: shRNA
So basically: sensor-assay potency score (higher = more potent) at -0.5 or higher? That is met. Lower than -0.5? That is not met.

Consider the worked cases shown below.
In: Please tell me: is the sequence TTGACAGCCAAAAACACACAGA at or over -0.5 in terms of sensor-assay potency score (higher = more potent)?
Out: not met

In: Assess whether reported sensor-assay potency score (higher = more potent) for TTTAAAATTGAATCTCATGTAA sits at -0.5 or higher.
Out: not met

Others:
In: Test whether the sequence TTTCTTGCTCTCTAGCCCGCAG records sensor-assay potency score (higher = more potent) of -0.5 or higher.
Out: not met

In: State whether the measured sensor-assay potency score (higher = more potent) reaches -0.5, counting equality as reaching it, for TTGCTGTCAGGAAACAACTCGT
Out: not met

In: Record TTTAATGAGAGCAAGAGCTGGA ; criterion: sensor-assay potency score (higher = more potent) no lower than -0.5. Met?
Out: met

* * *

# TESTED_ON: NEURL2
# ASSAY_COMMENT: pooled miR-30 sensor sort-seq; sequence = guide strand
# CONDITIONS: shRNA
ATTRIBUTE_MEASURED: sensor-assay potency score (higher = more potent)
// keep it numeric: no unit symbol after the value

In: Recorded sensor-assay potency score (higher = more potent) for TTGTGGAAGCAAACACGTCCAC , please?
Out: -0.451

In: // query sensor-assay potency score (higher = more potent) value for entry TCTTTGTGGAAGCAAACACGTC
Out: -1.58

In: GET /values?readout=sensor-assay potency score (higher = more potent)&item= TTCTCCTCGATCTCGACCAGGA
Out: -0.684

Proceeding to the next sequence to report its sensor-assay potency score (higher = more potent).
In: // returns reported sensor-assay potency score (higher = more potent) for input AAACACGTCCACCACCGCGTAG
Out: -1.26

* * *

Catalogue of sensor-assay potency score (higher = more potent) readings, one per entry.
# TESTED_ON: STRADB
# ASSAY_COMMENT: pooled miR-30 sensor sort-seq; sequence = guide strand
# CONDITIONS: shRNA

In: # input sequence: ATCTTGTTGCAAACAGAGCTGT ; wanted: its sensor-assay potency score (higher = more potent)
Out: -0.583

In: May I ask what sensor-assay potency score (higher = more potent) has been recorded for TTCTACTTGGAGCTCATAGTGA ?
Out: -0.852

In: Reported sensor-assay potency score (higher = more potent), sequence TTGCAAACAGAGCTGTACCAAG : ____
Out: -0.672

In: Quick check: sensor-assay potency score (higher = more potent) of TTCTGTAACAGCATCTGAGTTC ?
Out: -0.403

In: Any idea what sensor-assay potency score (higher = more potent) was measured for TTGATGGCTTGTTATAAGCAGG ?
Out: -1.06

In: Would you kindly share the measured sensor-assay potency score (higher = more potent) for TAGATTAGTAATTCTGATGTTT ?
Out: 0.0372

Now look at this one.
In: Requested field: sensor-assay potency score (higher = more potent). Item: TTCTTCATTGCAGTTTTCCAGA
Out: -0.72

* * *

# TESTED_ON: MRPL14
# ASSAY_COMMENT: pooled miR-30 sensor sort-seq; sequence = guide strand
# CONDITIONS: shRNA
ATTRIBUTE_MEASURED: sensor-assay potency score (higher = more potent)

In: Requested read-out sensor-assay potency score (higher = more potent), target or system MRPL14, entry TTGATGGCCAGTAGTATCTGGT
Out: -0.918

In: Record TTGTTGGAGTCGAATCTGGGGG : what is its sensor-assay potency score (higher = more potent) with MRPL14?
Out: -0.711

In: # query: sensor-assay potency score (higher = more potent) | item TAGTATCTGGTCGCCCACCTTG | system: MRPL14
Out: -1.26

Others:
In: # query: sensor-assay potency score (higher = more potent) | item TTATAGACATGGATGCAGCGAG | system: MRPL14
Out: -0.0779

In: Form: Entry = TGTTGGAGTCGAATCTGGGGGT | System = MRPL14 | sensor-assay potency score (higher = more potent) = ____
Out: -0.258

In: State its sensor-assay potency score (higher = more potent) on MRPL14: TCATCTTCTGAATCGCACTCAG
Out: -0.0883

In: What is its sensor-assay potency score (higher = more potent) for MRPL14? Entry: ATTCTTCTTATAGACATGGATG
Out: -1.46

In: Param readout = sensor-assay potency score (higher = more potent); param system = MRPL14; param query = TTGTCCACCACTCGTACCCGCG ; response: value
Out: -1.02

* * *

# TESTED_ON: EAPP
# ASSAY_COMMENT: pooled miR-30 sensor sort-seq; sequence = guide strand
# CONDITIONS: shRNA
ATTRIBUTE_MEASURED: sensor-assay potency score (higher = more potent)
Please state the value as a number alone, without comment.

These solved cases illustrate the format of a correct answer.
In: What value of sensor-assay potency score (higher = more potent) has been reported for the following sequence? TTCATTACAAACATTGCTCTAT
Out: 0.525

In: Can you look up the measured sensor-assay potency score (higher = more potent) of TACTGCTCTGTCTTCATCCTCG for me?
Out: 0.413

In: Requested read-out: sensor-assay potency score (higher = more potent). Entry: AAAGACTTCATCCTTGTCGTAG
Out: -0.0566

In: May I ask what sensor-assay potency score (higher = more potent) has been recorded for TATATATCATCGTAGTACCTTG ?
Out: -0.621

In: Which sensor-assay potency score (higher = more potent) is reported for this sequence? TCATCGTAGTACCTTGTCGGAG
Out: -1.04

***
In: sensor-assay potency score (higher = more potent) for TTCCACATCTGTCTCTGCCTTC ?
Out: 0.205

In: Requested read-out: sensor-assay potency score (higher = more potent). Entry: TATATCTTAGAACCTCCTCTTT
Out: -0.803

* * *

Recorded measurements of sensor-assay potency score (higher = more potent), one per entry
# TESTED_ON: KBTBD10
# ASSAY_COMMENT: pooled miR-30 sensor sort-seq; sequence = guide strand
# CONDITIONS: shRNA
Could you keep your reply to the number by itself?

Example results:
In: Find the recorded sensor-assay potency score (higher = more potent) belonging to TTTGCCTGCAACTACATAGATT and report it.
Out: -1.51

In: Requested field: sensor-assay potency score (higher = more potent). Item: TTGTCTAGCACTACCTCCTTTT
Out: -0.574

In: Could you share which sensor-assay potency score (higher = more potent) value was measured for TTTATCATCCACCTCTCCCAGA ?
Out: -0.692

In: Returns the measured sensor-assay potency score (higher = more potent) for the input sequence. Input: TTGCATACAGAGATCCAGCCAG
Out: -0.134

In: Which sensor-assay potency score (higher = more potent) value is on record for TGAAGCATAACGTATTTCCTTC ?
Out: -0.295

In: What measured sensor-assay potency score (higher = more potent) goes with TAGCTCCTGAAGCATAACGTAT ?
Out: -1.66

Now for another entry.
In: Using the record for TATGTCATTGACTTCAGTGGGT , report its sensor-assay potency score (higher = more potent).
Out: 0.618

* * *

Entries and their measured sensor-assay potency score (higher = more potent) follow.
# TESTED_ON: AP4E1
# ASSAY_COMMENT: pooled miR-30 sensor sort-seq; sequence = guide strand
# CONDITIONS: shRNA
Please give only the number in your answer, with no unit.

Examples with their reported sensor-assay potency score (higher = more potent) follow.
In: Please provide the recorded sensor-assay potency score (higher = more potent) for TTTCTTTATACCTTCCAGCTTC , tested on AP4E1.
Out: -0.271

In: Param readout = sensor-assay potency score (higher = more potent); param system = AP4E1; param query = TTTCAGACTACTCAGTTCCTGC ; response: value
Out: -0.633

In: Which sensor-assay potency score (higher = more potent) is reported with AP4E1 for this entry: TTTTCTTCGTACAATCTCCTTA ?
Out: 0.18

In: Requested read-out sensor-assay potency score (higher = more potent), target or system AP4E1, entry TACAACTGTATTCACAAGGAGA
Out: -0.841

Further cases:
In: Request - read-out sensor-assay potency score (higher = more potent) | tested on AP4E1 | sequence TTCATTATTACAGACTTCCATA
Out: -0.778

In: Can you look up sensor-assay potency score (higher = more potent) on AP4E1 for TACATTAATTCACTTGTCCTTT ?
Out: -0.311

In: Kindly state the measured sensor-assay potency score (higher = more potent) obtained for TTCATTGTCTGAATAAACCATG with AP4E1.
Out: -0.705
